Test system: Plasmodium falciparum 3D7 strain
Assay: In vitro antimalarial activity, SYBR Green I fluorescence-based method, Pf3D7
Format: cell-based
Details: Plasmodium falciparum, 3D7; SYBR Green I, 48 h incubation, strain with decreased susceptibility to MQ; 1a-b re-assayed here; mean ± SD of three experiments
pIC50 values for the molecules below.
Scale: negative log10 of molar concentration, which is what pIC50 denotes.

>  <STRUCTURE SMILES>
CCCCNC[C@H](O)c1cc(C(F)(F)F)nc2c(C(F)(F)F)cccc12

>  <pIC50>
7.82

$$$$

Q. Can you look up the measured pIC50 of `CCCCNC[C@@H](O)c1cc(C(F)(F)F)nc2c(C(F)(F)F)cccc12` for me?
A. 7.82

----------
Experiment: In vitro cytotoxicity, MTT assay on HepG2
Assay type: cell-based, human
Details: human, HepG2 cells; MTT, 72 h incubation; mean ± SD of three experiments
Protocol: Briefly, in 96-well plates, 100 µL of a cell culture adjusted to 25,000 cells/mL was dispensed and the plates were incubated at 37 °C in a humidified 5% CO2 atmosphere for 24 h to allow the cells to adhere to the bottom of the wells. […] The absorbance was read using the Tecan’s Sunrise™ absorbance microplate reader at 570 nm with 630 nm as the reference wavelength. […] Selectivity index (SI) was calculated and defined as the ratio between CC50 values on HepG2 and IC50.
METRIC NAME: CC50 at 72 h

>  <MOLECULE>
CCCCNC[C@@H](O)c1cc(C(F)(F)F)nc2c(C(F)(F)F)cccc12 [1a]

>  <CC50 at 72 h>
25.6 µM

$$$$
>  <MOLECULE>
CCCCNC[C@H](O)c1cc(C(F)(F)F)nc2c(C(F)(F)F)cccc12 [1b]

>  <CC50 at 72 h>
37.8 µM

$$$$
>  <MOLECULE>
CCCCNC[C@H](O)c1cc(-c2ccc(C(F)(F)F)cc2)nc(C(F)(F)F)c1 [2b]

>  <CC50 at 72 h>
4 µM

$$$$
>  <MOLECULE>
OC(c1cc(C(F)(F)F)nc2c(C(F)(F)F)cccc12)C1CCCCN1 (centres unmarked) [Mefloquine, mefloquine, reference compound]

>  <CC50 at 72 h>
8.6 µM

$$$$
>  <MOLECULE>
CCCCNC[C@@H](O)c1ccc(-c2ccc(C(F)(F)F)cc2)nc1C(F)(F)F [3a]

>  <CC50 at 72 h>
11.6 µM

$$$$

Q. I would be grateful if you could share the reported CC50 at 72 h for OC(c1cc(-c2ccc(C(F)(F)F)cc2)nc(C(F)(F)F)c1)C1CCCCN1 (centres unmarked) [Enpiroline, enpiroline, reference compound] .
A. 4.4 µM

Q. Try this molecule too: CCCCNC[C@@H](O)c1cc(-c2ccc(C(F)(F)F)cc2)nc(C(F)(F)F)c1 [2a]
A. 4 µM

Q. Please answer likewise for CCCCNC[C@H](O)c1ccc(-c2ccc(C(F)(F)F)cc2)nc1C(F)(F)F [3b]
A. > 100 µM

----------
Tested on: β-hematin formation
Experiment: Inhibition of β-hematin formation
Type: biochemical
Details: 2 mM, 24 h at 37 °C, versus negative control; mean ± SD of three experiments
Threshold rule: Inhibition (%) of β-hematin formation at 2 mM greater than or equal to 60% is fulfilled; below that, not fulfilled.

Reference set, count: 4
>  <STRUCTURE SMILES>
CCCCNC[C@@H](O)c1cc(-c2ccc(C(F)(F)F)cc2)nc(C(F)(F)F)c1

>  <CATEGORY>
fulfilled

$$$$
>  <STRUCTURE SMILES>
CCCCNC[C@@H](O)c1cc(C(F)(F)F)nc2c(C(F)(F)F)cccc12

>  <CATEGORY>
fulfilled

$$$$
>  <STRUCTURE SMILES>
CCCCNC[C@H](O)c1cc(C(F)(F)F)nc2c(C(F)(F)F)cccc12

>  <CATEGORY>
fulfilled

$$$$
>  <STRUCTURE SMILES>
CCCCNC[C@H](O)c1ccc(-c2ccc(C(F)(F)F)cc2)nc1C(F)(F)F

>  <CATEGORY>
not fulfilled

$$$$

We next turn to a different molecule, shown below.
Q. Check this molecule for Inhibition (%) of β-hematin formation at 2 mM at or above 60%: `CCCCNC[C@H](O)c1cc(-c2ccc(C(F)(F)F)cc2)nc(C(F)(F)F)c1`
A. not fulfilled

Values compiled from paper PMC11678906.
